Tested on: WiDr
measurement.notes: Compound was tested for inhibition of 14C-Tryptophan uptake in WiDr human adenocarcinoma cells and the effect was determined at 0-100 uM concentration
Assay type: functional, cell-based
Strictly below 1000 nM in Ki: TRUE. Otherwise: FALSE.

Examples with answers:
• CCCN(CCC)c1ccc2c(c1)CC(N)(C(=O)O)CC2 (stereo not drawn) = FALSE
• CN(C)c1ccc2c(c1)CC(N)(C(=O)O)CC2 (stereo not drawn) = FALSE

Okay, next one:
Prompt line: Would you kindly verify if Ki of NC1(C(=O)O)CCc2ccccc2C1 (stereo not drawn) is strictly less than 1000 nM?
Response line: FALSE

###

Tested on: WiDr
measurement.notes: Compound was tested for inhibition of 14C-Tryptophan uptake in WiDr human adenocarcinoma cells and the effect was determined at 0-100 uM concentration
Format: functional, cell-based
quantity.measured: pKi
pKi field: float, defined as -log10 of concentration (mol/L).

• NC1(C(=O)O)CCc2ccc(N(CCCl)CCCl)cc2C1 (stereo not given) = 6.10
• CCCNc1ccc2c(c1)CC(N)(C(=O)O)CC2 (stereo not given) = 5.77
• Nc1ccc2c(c1)CC(N)(C(=O)O)CC2 (stereo not given) = 4.47
• CC(C)Nc1ccc2c(c1)CC(N)(C(=O)O)CC2 (stereo not given) = 6.22

Now for a further compound.
# NC1(C(=O)O)CCc2ccc(N(CCO)CCO)cc2C1 (stereo not given) with WiDr: pKi is 5.85
